Experiment Summary: Physical and chemical stability on storage (LC-MS and XRPD)
Format: physicochemical
Cond: 1 week stability assay
Observation Type: decomposition or solid form change in stability assay

compound="CC(C)[C@@H]1[C@H]2CC[C@H](C2)[C@H]1N [L-malate Type C]" endpoint_value="form change observed"
compound="CC(C)[C@@H]1[C@H]2CC[C@H](C2)[C@H]1N (racemic) [Phosphate Type B]" endpoint_value="form change observed"

* * *

For each record, write down the corresponding EC50.
Tested on: MUC1-wt
Experiment Summary: High-content imaging assay of MUC1-wt total cytoplasm intensity in P cells
Type: cell-based
Cond: MUC1-wt total cytoplasm intensity, P cells, 48 hr incubation

EC50 for Cl.N[C@H]1[C@H]2CC[C@H](C2)[C@@H]1C1CCCCC1 (single isomer, unassigned) [Compound 118-P2] is > 32 µM

EC50 for CCC[C@H]1[C@H]2CC[C@H](C2)[C@@H]1N.Cl [Compound 108-P1] is > 32 µM

EC50 for Cl.N[C@@H]1[C@@H]2CC[C@@H](C2)[C@H]1C1CCCC1 (single isomer, unassigned) [Compound 116-P1] is > 32 µM

EC50 for Cl.N[C@@H]1[C@@H]2CC[C@@H](C2)[C@H]1C1CC1 (racemic) [Compound 109] is > 32 µM

EC50 for CC(C)C[C@H]1[C@@H]2CC[C@@H](C2)[C@@H]1N.Cl (single isomer, unassigned) [Compound 111-P2] is > 32 µM

EC50 for Cl.N[C@H]1[C@@H]2CC[C@@H](C2)[C@@H]1C1CCC1 (racemic) [Compound 114-rac] is > 32 µM

EC50 for Cl.N[C@H]1[C@@H]2CC[C@@H](C2)[C@@H]1C1CCCCC1 (racemic) [Compound 119] is > 32 µM

EC50 for CCC[C@@H]1[C@H]2CC[C@H](C2)[C@H]1N.Cl [Compound 107-P1] is > 32 µM

EC50 for Cl.N[C@@H]1[C@@H]2CC[C@@H](C2)[C@H]1c1ccccc1 (racemic) is > 32 µM

EC50 for Cl.N[C@H]1[C@@H]2CC[C@@H](C2)[C@@H]1C1CCCCC1 (single isomer, unassigned) [Compound 119-P1] is > 32 µM

EC50 for C[C@@H]1[C@H]2CC[C@H](C2)[C@H]1N.Cl (single isomer, unassigned) [Compound 104-P2, hydrochloride] is > 32 µM

EC50 for Cl.N[C@H]1[C@H]2CC[C@H](C2)[C@@H]1C1CCCC1 (single isomer, unassigned) [Compound 116-P2] is > 32 µM

EC50 for CC(C)C[C@H]1[C@H]2CC[C@H](C2)[C@@H]1N.Cl (racemic) [Compound 112] is > 32 µM

EC50 for CC(C)[C@H]1[C@H]2CC[C@H](C2)[C@H]1N.Cl (racemic) [Compound 103, hydrochloride] is > 32 µM

EC50 for Cl.N[C@H]1[C@@H]2CC[C@@H](C2)[C@@H]1C1CC1 (single isomer, unassigned) [Compound 110-P1, hydrochloride] is > 32 µM
